# credit: ChEMBL document CHEMBL1151757

tested on: Thalamus; assay: Drug uptake in anesthetized cynomolgus monkey brain thalamus after 9.5 mins postinjection; format: ADME, organism-based, Macaca fascicularis; set-up: unit not given here; conditions: in vivo
We begin with a simple list: items and their reported Drug uptake.
Reply with the value as a number alone.

A selection of reference data follows.
COMPOUND: O=C(OCC[18F])C1C2CCC(CC1c1ccc(/C=C\I)cc1)N2 (centres undefined)
QUANTITY: Drug uptake
MEASURED RESULT: 2.06
//
COMPOUND: O=C(OCCC[18F])C1C2CCC(CC1c1cccc(/C=C\I)c1)N2 (centres undefined)
QUANTITY: Drug uptake
MEASURED RESULT: 3.45

Reported Drug uptake for O=C(OCC[18F])C1C2CCC(CC1c1cccc(/C=C\I)c1)N2 (centres undefined) was 3.01

Reported Drug uptake ( O=C(OCCC[18F])C1C2CCC(CC1c1cccc(/C=C\Br)c1)N2 (centres undefined) ) = 4.02
